All figures here come from PubChem BioAssay (NCATS).

Assayed system: Cytochrome P450 3A4 (Homo sapiens)
Measurement description: qHTS Assay for Inhibitors and Substrates of Cytochrome P450 3A4 (AID 884); further: nearly all actives have a fitted effect of over 50% in size
Setup conditions: recombinant CYP3A4, Luciferin-PPXE luminescence; series mostly up to 57.1 µM
Results filed as inconclusive are left out. The source made the active and inactive calls. The call rests on the fitted dose curve; in most records, active means well fitted inhibition curve with a large enough effect; inconclusive means small, poorly fitted or top-dose-only effect; inactive means no such curve, though single readings can be large or run the other way.
Possible outcomes: active, inactive

>>> group("Cc1cccc(C)c1NC(=O)CN1CCN(CCCC(c2ccc(F)cc2)c2ccc(F)cc2)CC1")
"inactive"
>>> group("O=C1CCC(c2ccc(-n3ccnc3)cc2)=NN1")
"active"
>>> group("Cc1ccc(C(=O)C(C)CN2CCCCC2)cc1 (centres undefined)")
"inactive"
>>> group("COc1cc(OC)cc(OC)c1")
"inactive"
>>> group("CCn1cc(C(=O)O)c(=O)c2cnc(N3CCCC3)nc21")
"inactive"
>>> group("CC(O)C(=O)O (centres undefined)")
"inactive"
>>> group("Nc1ccc(C(=O)O)cc1")
"inactive"
>>> group("O=C(O)c1cc2cc(Cc3cccnc3)ccc2o1")
"inactive"
>>> group("COc1cc(-c2ccc(=O)[nH]n2)ccc1OC(F)F")
"inactive"
>>> group("CCN(CCCc1ccccc1)CCCc1ccccc1")
"inactive"
>>> group("OCc1ccccc1O")
"inactive"
>>> group("CCCCCCCCCCCCCCCCOP(=O)([O-])OCC[N+](C)(C)C")
"inactive"
>>> group("CC(C)NC[C@@H](O)COc1cccc2ccccc12")
"inactive"
>>> group("Oc1c(I)cc(I)c2cccnc12")
"inactive"
